- experiment: soluble on expression in E. coli; label from the status in PepcDB or PDB records

record.sequence | soluble on expression in E. coli
SLQLESLISAAPALSQQAVDQEWSYMDFLEHLLHEEKLARHQRKQAMYTRMAAFPAVKTFEEYDFTFATGAPQKQLQSLRSLSFIERNENIVLLGPSGVGKTHLAIAMGYEAVRAGIKVRFTTAADLLLQLSTEQRQGRYKTTLQRGVMAPRLLIIDEIGYLPFSQEEAKLFFQVIAKRYEKSAMILTSNLPFGQWDQTFAGDAALTSAMLDRILHHSHVVQIKGESYRLRQKRKAGVIAEANP | not soluble
MAHHHHHHMPGVLRGKGPTRVFLPQPCNHVGNLKIVWKVKLQIYAVQTNFSRVYGAPSDAQPHVICGTKRISDVHQDIACCRILLNGVIAPPVRLQNQPLVFLTKETGDGVGITHCVECRHVSQHILRLKKNIAVNDDSPLLGAAVTNEIHTKPASSHSSADTQMIGH | not soluble
MTTFILSHNLQVQSKDVPPFETQVLADGIVSNSSAIISATVIQHPHWIIELTSNLPPNDMAVELVKSWKQLRSKLGQSADHVILALGGRKDSLAAPGAPLQEGFWGVDVVETHDEEAFLQAINWDALKSNRPEDGVFEISSNN | not soluble

---

- experiment: soluble on expression in E. coli; label from the status in PepcDB or PDB records

record.sequence | soluble on expression in E. coli
VAASWREQFIRAEQTHWDAVTETASETYWEGGVLSDVTALAPDPATLFISNSMPIRDMDRFGGPRDADLTVLGNRGASGIDGITSTALGAGSATSDPLVLVTGDLAYYHDMNGLLALGRCAVDATVVLLNNDGGGIFHMLPIEDHPTFEDQFRTPHGLDFEPTEALYSLQFERVADRRQFRERFAESVQTDGTQVIEVRFDAGDSHAVRDQLTE | not soluble
SLLEIDNQTPLESDFSLLEKIAKFLAPTQIIELVLVSDETMREINRDLRGCDYVTDVLSFPLEAIPHTPLGSVVINAPLAQENALKLGHRLEEEIALLFIHGVLHLLGYDHEKDKGEQRQKESELIKAFNLPLSLIERTQD | soluble
HHHHHHHMTAPAADDRIDEIERAITKSRRYQTVAPATVRRLARAALVAARGDVPDAVKRTKRGLHEIYGAFLPPSPPNYAALLRHLDSAVDAGDDEAVRAALLRAMSVHISTRERLPHLDEFYRELFRHLPRPNTLRDLACGLNPLAAPWMGLPAETVYIASDIDARLVGFVDEALTRLNVPHRTNVADLLEDRLDEPADVTLLLKTLPCLETQQRGSGWEVIDIVNSPNIVVTFPTKSLGQRSKGMFQNYSQSFESQARERSCRIQRLEIGNELIYVIQK | soluble
MSLELMEEVDRTVHHMQDEAANFPDPADRASQEEEFSLELRARDRERKLIKKIDETLQLIEDEEYGWCDSCGVEIGIRRLEEGHHHHHH | not soluble

---

- experiment: soluble on expression in E. coli; label from the status in PepcDB or PDB records

record.sequence | soluble on expression in E. coli
MSDSPDSPPDAEPSIAARIAAVLPSLTPIHRRMGEYVLANPFRAATMRIDELANAVDASIATANRFARALGFDGYPALRAALVRGFEATLAPVERLRSAQEHEAGARGGELIDASFEQAL | not soluble
MSEKTMGPRQSRPGILTPAQERVAQAIARLGPEISLTDISRMVGGHPNASRQHIKTLENSGYISATQKRGAAGRPAQLYSITPEGLRALAGNATLIAHTSFVRSLSHYIANQPHPEERALALGSQMVRDEGPLPGATKVDKVVNLLEKYGFAPTQAGTEIQLLTCPVLDSAVRHPEVVCTMHRGILNEITGNNTTFILEPFARPGMCVIRTVSPTANPTQT | not soluble

---

- experiment: soluble on expression in E. coli; label from the status in PepcDB or PDB records
endpoint.name: soluble on expression in E. coli

record.sequence | assay.result
QITYWKERQRRKTIRAEEIRGLIYRIWKIYPSLLGQELLESTIFVFMVLAAVARLGAEDVAVYKLLDLVCGMLELPVYAYAAATQTYALQNHAAGKKAAVRSYEK | not soluble
MGSDKIHHHHHHMTTPRRALIVIDVQNEYVTGDLPIEYPDVQSSLANIARAMDAARAAGVPVVIVQNFAPAGSPLFARGSNGAELHPVVSERARDHYVEKSLPSAFTGTDLAGWLAARQIDTLTVTGYMTHNCDASTINHAVHSGLAVEFLHDATGSVPYENSAGFASAEEIHRVFSVVLQSRFAAVASTDEWIAAVQGGTPLARGNIYASNQKARARRATA | not soluble
IVMAETKETVIDEVVVTGTGAQKKVTVTGAVTTVDVSQLRTPTASITNALAGNVAGILARQTSGQPGSNISEFWIRGISTFGAGGSALVLVDGFERDMNEINVEDIQDFSVLKDASATAIYGSRGANGVVLITTKRGKEGK | not soluble
MSLRPTIYDVAKAAGVSKSLVSLVLRGSPNVSKESEAAVKTAIKKLNYQPNRAASDLAAKRTQLIAVLIDDYSNPWFIDLIQSLSDVLTPKGYRLSVIDSLTSQAGTDPITSALSMRPDGIIIAQDIPDFTVPDSLPPFVIAGTRITQASTHDSVANDDFRGAEIATKHLIDLGHTHIAHLRVGSGAGLRRFESFEATMRAHGLEPLSNDYLGPAVEHAGYTETLALLKEHPEVTAIFSSNDITAIGALGAARELGLRVPEDLSIIGYDNTPLAQTRLINLTTIDDNSIGVGYNAALLLLSMLDPEAPHPEIMHTLQPSLIERGTCAPREGHHHHHH | soluble
MISCSEEGSNKILVAISLDRDESQNVLSWAINVLAKPSDTVVALHLLVGEEPRKLPMKKKKRTQIRHAKAHVISMLGEFAYTCCHNQVNLEAKVGFSSNIGRGLIDEVKSISAHYLVLSRPTTHEFR | soluble

Input: Please supply the value of reported soluble on expression in E. coli for the item GPGSMLSRIKKQQAETRDAAGQSHSSGGGPSTASSEPVAILRLKKDLDNLDGIRSTIDIPDPQNMLRMKVTVRPPYPSIWQGGIFEFLLEFREDYPYEGPRVRYLGPYRIWHPNIEGDEYMEGEGGLRGDVKNTWGVCLSFQTEWKPTMSLRDIIIMIELLFQDPNPDDPLHGTAKQAAQMMKDNPAKFRDKARRWMRGGYIE
Output: soluble

Input: Provide one value: measured soluble on expression in E. coli of MGIKGSKPKLSKEDLEFLKKNTNFTEEQIKEWYKGFVQDCPKGHLTKEQFIKVYKDFFPSGSAEGFCEHVFRTFDTDNSGFIDFKEFLLAINVTSSGTPEQKLEWAFRMYDIDGNGTIDEKEMIKIIEAIYEMLGPEVTKSADDSPRKRAKMIFEKMDVNNDKELTLKEFVDGCLADKELFQILTNEVKK
Output: not soluble

---

- experiment: soluble on expression in E. coli; label from the status in PepcDB or PDB records
endpoint.name: soluble on expression in E. coli

The cases that follow already have their soluble on expression in E. coli on record.
record.sequence | soluble on expression in E. coli
MGSDKIHHHHHHMAVSAKYDEFNHWWATEGDWVEEPNYRRNGMSGVQCVERNGKKLYVKRMTHHLFHSVRYPFGRPTIVREVAVIKELERAGVIVPKIVFGEAVKIEGEWRALLVTEDMAGFISIADWYAQHAVSPYSDEVRQAMLKAVALAFKKMHSINRQHGCCYVRHIYVKTEGNAEAGFLDLEKSRRRLRRDKAINHDFRQLEKYLEPIPKADWEQVKAYYYAM | not soluble
GAMGPVDEQWIEILRIQALCARYCLTINTQDGEGWAGCFTEDGAFEFDGWVIRGRPALREYADAHARVVRGRHLTTDLLYEVDGDVATGRSASVVTLATAAGYKILGSGEYQDRLIKQDGQWRIAYRRLRNDRLVSDPSVAVNVADADVAAVVGHLLAAARRLGTQMSDT | soluble
MGSDKIHHHHHHMKRAYAMPLTNPSFPPGPYRFFDREYIIITYRTTREALEAVVPAPLEIDEPLVKYEFIRMPDSTGFGDYTETGQVIPVKYKGQHGGYVHSMYLDDDAPIAGGRELWGFPKKLANPKIVHEGEVIVGTLHYGSVLCATGTMGYKHREADHDSVLASLAAPNFLIKIIPHVDGGPRICELVRYYLTDITLKEAWTAPAALDLRPHVMADVAKLPVLDIISAVHFKADLTLGLGEVVHDYLSDHNRLATSTTQPEKIRA | not soluble
MGSDKIHHHHHHMKGFMNMFTNDQFKSLLIKTLERKSSSNYYEGGNEIVSKMKISEVTLDETDDFTYYKGYKKGWNTLCTYLKIRVPFDDLDFFESHKDLITQTASSIYDKQGDNVLVDTILVPLPENYEVINFSQLKISDVVSQAIEDAESFMSNGEYQRAFDRVHTAFHGYLIEILKKYEITVPRDENLSKLYSRIQQLIEKEIQPTELADIVKTTIRSSNGMISSLNEARNRHSLAHPNTNIIGKREAKLIIGISSTVTDYISGYLDK | not soluble
MLEFDTTQDQLANIKVIGVGGGGNNAVNRMIEHGVQGVDFIAVNTDAQALNLSKAETKMQIGGKLTRGLGAGANPEVGKKAAEESKEQIQEALRGADMVFVTAGMGGGTGTGAAPVVAQVAKELGALTVGVVTRPFTFEGRKRATQAASGIAAFKENVDTLIVIPNDRLLEIVDKNTPMLEAFREADNVLRQGVQGISDLIATPGLINLDFADVKTIMSNRGSALMGIGSGNGENRAAEAAKKAISSPLLETSIDGAQGVIMNITGGANLSLYEVQEAADIVASASDPEVNMIFGSVINEGLKDDIVVTVIATGFDDSIATQPPKPIIRPNVNHTQQQQQPVAQPPKQREVKREMKREEPVVHERHSDSDSDDIDIPAFLRNRRRR | not soluble
MVRKGCNSLVRAEKILTHIAWVGMASYMELLNKFQYPKSSLLNLLNVMVDCGFLIKNKNGYYSLGIKNYELGCQALHRQNIFEVTKRPMQELSLKSGLVCHLGAMESISAIYLDKIESPDSVPTSKSWIGKKLELHITALGKALLAWKTREELDYFLEALTLTPHTRNTFTDKKLFLEELQKTRLRGWAIDNEESTYGAVCLSMPVFNMYNRVNYAISLSGDPVVYSGNKIDSYLELLRKCAEQISYGLGYRNENEHLRKGN | soluble

In the following, a different sequence is considered.
Input: Find the measured soluble on expression in E. coli of GHMAKTDRSQPSVLARIAAFRTGLSAEASAADYLERQGYRILARRFKTRCGEIDLVAQRDALVAFVEVKARGNVDDAAYAVTPRQQSRIVAAAEAWLSRHPEHAMSELRFDAILIAPNTAPRHLPGAFDATPGS and report it.
Output: soluble
